# experiment notes: Antioxidation activity assessed as inhibition of peroxidation of liposome at 60 ug/mL
# Assay type: physicochemical
# measurement parameters: artificial membrane
quantity: inhibition (INH) (%)

> print(dat)
                               entry.smiles          quantity  unit.text  result.value
1  COc1cc(O[C@@H]2O[C@H](CO[C@H]3OC[C@@H](O)[C@H](O)[C@H]3O)[C@@H](O)[C@H](O)[C@H]2O)cc2oc(-c3ccc(O)cc3)cc(=O)c12  inhibition (INH)          %            71

(I) COc1ccc(-c2cc(=O)c3c(OC)cc(O[C@@H]4O[C@H](CO[C@H]5OC[C@@H](O)[C@H](O)[C@H]5O)[C@@H](O)[C@H](O)[C@H]4O)cc3o2)cc1OC
(II) COc1ccc(-c2cc(=O)c3c(OC)cc(O[C@@H]4O[C@H](CO[C@H]5O[C@H](C)[C@@H](O)[C@H](O)[C@H]5O)[C@@H](O)[C@H](O)[C@H]4O)cc3o2)cc1OC
Hi! Which is lower in terms of inhibition (INH), the first one I or the second one II ? Return value: the label identifying the chosen record. II
(II: 67%, I: 98%)
